Data credit: ChEMBL document CHEMBL5120927

- Tested on: Staphylococcus aureus
- TEST_PROTOCOL: Antibacterial activity against […] Staphylococcus aureus 4463/A assessed as reduction in microbial growth incubated for 24 hrs by microdilution assay
- Assay type: functional
ASSAY_METRIC: MIC

CC[C@H]1OC(=O)[C@H](C)[C@@H](O[C@H]2C[C@@](C)(OC)[C@@H](O)[C@H](C)O2)[C@H](C)[C@@H](O[C@@H]2O[C@H](C)C[C@H](N(C)C)[C@H]2O)[C@](C)(O)C[C@@H](C)C(=O)[C@H](C)[C@@H](O)[C@]1(C)O	0.25 µg/mL
CC1(C)S[C@@H]2[C@H](NC(=O)[C@H](N)c3ccccc3)C(=O)N2[C@H]1C(=O)O	0.5 µg/mL
CCCCCCOP(=O)(CCN(CCCNC(=N)N)CCCNC(=N)N)OCCCCCCCCOP(=O)(CCN(CCCNC(=N)N)CCCNC(=N)N)OCCCCCC.Cl.Cl.Cl.Cl.Cl.Cl (centres undefined)	0.5 µg/mL
Cc1onc(-c2ccccc2)c1C(=O)N[C@@H]1C(=O)N2[C@@H]1SC(C)(C)[C@@H]2C(=O)O	0.25 µg/mL

----------
- System: Staphylococcus aureus
- TEST_PROTOCOL: Antibacterial activity against Staphylococcus aureus ATCC 29213 = CCM 4223 assessed as inhibition of bacterial growth incubated for 24 hrs in presence of BSA by microdilution assay
- Type: functional
ASSAY_METRIC: MIC

Cl.Cl.Cl.Cl.Cl.Cl.NCCCN(CCCN)CCP(=O)(OCCCCCCCOP(=O)(CCN(CCCN)CCCN)OCCCC(F)(F)F)OCCCC(F)(F)F (stereo not drawn)	> 128 µg/mL
CCCCCCCCCCCCCCOP(=O)(CCN(CCCN)CCCN)OCC.Cl.Cl.Cl (stereo not drawn)	> 128 µg/mL
CCCCOP(=O)(CCN(CCCN)CCCN)OCCCCCCCCOP(=O)(CCN(CCCN)CCCN)OCCCC.Cl.Cl.Cl.Cl.Cl.Cl (stereo not drawn)	> 128 µg/mL

----------
- System: Staphylococcus aureus
- TEST_PROTOCOL: Antibacterial activity against methicillin resistant Staphylococcus aureus 4591/A assessed as reduction in microbial growth incubated for 24 hrs by microdilution assay
- Type: functional
ASSAY_METRIC: MIC (µg/mL)

CCCCCCCCCCOP(=O)(CCN(CCCN)CCCN)OCCCOP(=O)(CCN(CCCN)CCCN)OCCCCCCCCCC.Cl.Cl.Cl.Cl.Cl.Cl (stereo unspecified)	1
CCCCCCCCCCOP(=O)(CCN(CCCN)CCCN)OCCCCCCOP(=O)(CCN(CCCN)CCCN)OCCCCCCCCCC.Cl.Cl.Cl.Cl.Cl.Cl (stereo unspecified)	0.5
CCCCCOP(=O)(CCN(CCN)CCN)OCCCCCCCCOP(=O)(CCN(CCN)CCN)OCCCCC.Cl.Cl.Cl.Cl.Cl.Cl (stereo unspecified)	8
Cl.Cl.Cl.Cl.Cl.Cl.NCCN(CCN)CCP(=O)(OCCCCCCOP(=O)(CCN(CCN)CCN)OCCc1ccccc1)OCCc1ccccc1 (stereo unspecified)	64
Cl.Cl.Cl.Cl.Cl.Cl.NCCCN(CCCN)CCP(=O)(OCCCOP(=O)(CCN(CCCN)CCCN)OCCC12CC3CC(CC(C3)C1)C2)OCCC12CC3CC(CC(C3)C1)C2 (stereo unspecified)	1
CCCC/C=C\CCOP(=O)(CCN(CCCN)CCCN)OCCCCCOP(=O)(CCN(CCCN)CCCN)OCC/C=C\CCCC.Cl.Cl.Cl.Cl.Cl.Cl (stereo unspecified)	2
CCCCCOP(=O)(CCN(CCCN)CCCN)OCCCCCCCCCCOP(=O)(CCN(CCCN)CCCN)OCCCCC.Cl.Cl.Cl.Cl.Cl.Cl (stereo unspecified)	2
CCCC/C=C\CCOP(=O)(CCN(CCCNC(=N)N)CCCNC(=N)N)OCCCCCCOP(=O)(CCN(CCCNC(=N)N)CCCNC(=N)N)OCC/C=C\CCCC.Cl.Cl.Cl.Cl.Cl.Cl (stereo unspecified)	1
CC(C)COP(=O)(CCN(CCCN)CCCN)OCCCCCCCCCCOP(=O)(CCN(CCCN)CCCN)OCC(C)C.Cl.Cl.Cl.Cl.Cl.Cl (stereo unspecified)	16
CCCCCCCOP(=O)(CCN(CCCN)CCCN)OCCCCOP(=O)(CCN(CCCN)CCCN)OCCCCCCC.Cl.Cl.Cl.Cl.Cl.Cl (stereo unspecified)	4
CCCCC/C=C\CCOP(=O)(CCN(CCCNC(=N)N)CCCNC(=N)N)OCCCCCOP(=O)(CCN(CCCNC(=N)N)CCCNC(=N)N)OCC/C=C\CCCCC.Cl.Cl.Cl.Cl.Cl.Cl (stereo unspecified)	1
CCCCOP(=O)(CCN(CCN)CCN)OCCCCCCCCCCOP(=O)(CCN(CCN)CCN)OCCCC.Cl.Cl.Cl.Cl.Cl.Cl (stereo unspecified)	128
CCCC/C=C\CCOP(=O)(CCN(CCCN)CCCN)OCCCCCCOP(=O)(CCN(CCCN)CCCN)OCC/C=C\CCCC.Cl.Cl.Cl.Cl.Cl.Cl (stereo unspecified)	1
CCCCCCOP(=O)(CCN(CCCNC(=N)N)CCCNC(=N)N)OCCCCCCCCOP(=O)(CCN(CCCNC(=N)N)CCCNC(=N)N)OCCCCCC.Cl.Cl.Cl.Cl.Cl.Cl (stereo unspecified)	5
Cl.Cl.Cl.Cl.Cl.Cl.NCCCN(CCCN)CCP(=O)(OCCCCCCOP(=O)(CCN(CCCN)CCCN)OCCCC1CCCCC1)OCCCC1CCCCC1 (stereo unspecified)	1
Cl.Cl.Cl.Cl.Cl.Cl.NCCCN(CCCN)CCP(=O)(OCCCCCCCCCCOP(=O)(CCN(CCCN)CCCN)OCCc1ccccc1)OCCc1ccccc1 (stereo unspecified)	2
